System: MDA-MB-435 melanoma
procedure details: NCI-60 one-dose screen, 48 h (100 = growth as untreated, 0 = no growth, -100 = all killed)
experimental conditions: 10 µM
The panel holds about 83,000 compounds, 20% with a hit somewhere; the sample as a whole holds those more often. Calls of active or inactive are those of the source. Rule for the calls: active = growth percent below 10; inactive = the rest.
Reported growth values for a set of compounds
readout type: growth

>>> result("CN1CCN(Cc2ccc(C(=O)Nc3cccc(Nc4ccc5c(O)cccc5n4)c3)cc2C(F)(F)F)CC1")
"-91.6% (active)"
>>> result("CC(C)C1=C[C@@]23CC[C@@H]4[C@](C)(CCC[C@]4(C)C(=O)NCc4ccccc4)[C@H]2C[C@@H]1[C@H]1C(=O)CCC(=O)[C@H]13")
"86% (inactive)"
>>> result("O=C(CNc1nc(-c2ccccc2)cs1)Nc1cccc(Cl)c1")
"42.1% (inactive)"
>>> result("CO[C@H]1CSS[C@@H]1Cn1nc(-c2ccc(Oc3ccccc3)cc2)c2c(N)ncnc21")
"-46.5% (active)"
>>> result("O=C(COc1ccc(NC(=O)Nc2ccc(Cl)cc2)cc1)N=Nc1c(O)[nH]c2ccc([N+](=O)[O-])cc12")
"17% (inactive)"
>>> result("O=C(CNc1nc(-c2ccccc2)cs1)Nc1ccc(Cl)cc1")
"-58.5% (active)"
>>> result("COc1ccc(-c2ccc(/C=N/NC(=O)c3[nH]c4ccc(Br)cc4c3-c3ccccc3)o2)cc1")
"-45.1% (active)"
>>> result("N#Cc1ccc(-c2nn(-c3ccc(C(=O)O)cc3)cc2CNc2cccc(Br)c2)cc1")
"59% (inactive)"
>>> result("NS(=O)(=O)c1ccc(N=Nc2c(O)n(CC(=O)Nc3ccccc3Br)c3ccccc23)cc1")
"50.6% (inactive)"
>>> result("CCCSc1nc(NC2CC2)c(C#N)c(-c2ccc(OC)cc2)n1")
"106% (inactive)"
>>> result("CCCCCc1ccc(S(=O)(=O)N(C(C)=O)c2cc(-c3csc(N(C)C(C)=O)n3)ccc2N2CCN(C)CC2)cc1")
"-97.4% (active)"
>>> result("O=C(c1ccc(Cl)cc1)C1[C@H](c2ccc(Br)cc2)[C@@H](c2ccccc2)NC12C(=O)Nc1ccc(Cl)cc12 (stereo not given in full)")
"-84.9% (active)"
>>> result("CC(=O)c1ccc(NC(=O)NCn2c(=O)[nH]c3ccccc3c2=O)cc1")
"99.6% (inactive)"
>>> result("COc1ccc(OC)c(-c2cc(-c3c[nH]c4ccccc34)nc(N)c2C#N)c1")
"-5.04% (active)"
>>> result("COC[C@@H](CC(C)C)N=C1NC(=O)/C(=C/c2ccc3ncsc3c2)N1")
"12.7% (inactive)"
>>> result("C=C(C)[C@@H]1CC[C@]2(C(=O)OC)CC[C@]3(C)[C@H](CC[C@@H]4[C@@]5(C)CC[C@H](N)C(C)(C)[C@@H]5CC[C@]43C)[C@@H]12")
"-97% (active)"
>>> result("COc1ccc(-c2nc(S(=O)(=O)c3ccc(C)cc3)c(S(=O)(=O)CC(=O)N(C)Cc3ccccc3)o2)cc1")
"32% (inactive)"
>>> result("CC(=C(c1ccc(OCCN2CCCCC2)cc1)c1ccc(OCCN2CCCCC2)cc1)c1ccccc1")
"-66% (active)"
>>> result("O=C(CSc1nnc(-c2c[nH]c3ccccc23)n1-c1ccccc1)Nc1ccc(C(=O)/C=C/c2ccc(Cl)cc2)cc1")
"64.1% (inactive)"
>>> result("O=C(CNc1nc(-c2ccccc2)cs1)Nc1ccccc1")
"-3.84% (active)"
>>> result("COc1cc(/C=C/C(=O)c2ccc(NC(=O)CN3C(=O)NC(C)(c4ccccc4)C3=O)cc2)cc(OC)c1OC (stereo not given)")
"7.31% (active)"
>>> result("CC1(C)[C@@H](NCO)CC[C@]2(C)[C@H]3C(=O)C=C4[C@@H]5C[C@](C)(CO)CC[C@]5(C)CC[C@@]4(C)[C@]3(C)CC[C@@H]12")
"59.9% (inactive)"
>>> result("N#Cc1c(NC(=O)c2cccc(C(F)(F)F)c2)sc2c1CCC(O)=C2")
"9.7% (active)"
>>> result("C/C(=C\\CSc1ccccc1C(=O)O)CCCC(C)CCCC(C)CCCC(C)C (stereo not given)")
"71.8% (inactive)"
>>> result("C=C[C@H]1[C@H](O[C@@H]2OC(CO)[C@@H](O)[C@H](O)C2OC(=O)c2c(O)cc(O)cc2-c2cccc(O)c2)OC=C2C(=O)OCC[C@H]21 (stereo not given in full)")
"102% (inactive)"
>>> result("COc1ccc(C(=O)NC(=S)N2CCN(c3ncnc4c3cnn4-c3ccccc3)CC2)cc1")
"84.8% (inactive)"
>>> result("O=C(Nc1cccc(C(F)(F)F)c1)c1cncc(C#Cc2cnc3ccc(N4CCOCC4)nn23)c1")
"4.32% (active)"
>>> result("CCOC(=O)C(Cc1ccccc1)N1C(=O)/C(=C/N2N=C(c3ccc(OC)cc3)CC2c2ccc3ccccc3c2)SC1=S (stereo not given)")
"16.3% (inactive)"
>>> result("COc1ccc(/C(CSc2nnc(-c3c[nH]c4ccccc34)n2-c2ccccc2)=N/O)cc1")
"-5.25% (active)"
>>> result("NC1=NC(c2ccccc2Cl)N=C(Nc2nn[nH]n2)N1 (stereo not given)")
"102% (inactive)"
>>> result("COC[C@@H](CC(C)C)N=C1NC(=O)/C(=C/c2ccc3ncoc3c2)N1")
"17.3% (inactive)"
>>> result("N#Cc1c(NC(=O)c2ccc(C(F)(F)F)cc2C(F)(F)F)sc2c1CCC(=O)C2")
"-53.6% (active)"
>>> result("COc1cnc2c(c1)C(=O)c1c-2n(CCCNCCO)c(=O)c2cc(OC)c(OC)cc12")
"49.7% (inactive)"
>>> result("N#Cc1ccc(-c2nn(-c3ccc(C(=O)O)cc3)cc2CNc2cc(Cl)cc(Cl)c2)cc1")
"40.1% (inactive)"
>>> result("CN(C)c1ccc(/C=C/c2nc3ccccc3c(=O)n2CC(=O)Nc2ccc(Cl)cc2)cc1")
"68.8% (inactive)"
